src = the DeepSol protein solubility set

test: soluble on expression in E. coli; label from the status in PepcDB or PDB records
test-readout: soluble on expression in E. coli

MKNVIACISSPRRVQSICDYAIWAVRRLGSELELLHVVEREQDAVPIADLSGGIWMGTQETLLKELAELDERRQQLAQEQGRQLLQAATERAREAGIQGLAGLARQGYLVDVLLELEDDARLFVMGQHDRPTKPSRLLPDQHLEAAVRALHRPVLVAG : not soluble
MNQKMIIGNAEAICLPELGITHLEARIDTGAQTSSLHVDNIDCFEKDGQSYVAFDLHPDVYHLEQVVRCTAKLKANRKVKSSNGTFEHRCVITTMLRLGDQEWPIDITLTNREKMTYMMLLGRQGMADKVLVDPSQSHLLAS : not soluble
MQNMFDGVQLFVEVVEAGGFAKAGKRLSLTRSTIGKAIARLEMRLGVQLFQRTTRVQSLTEDGQQYYERCLRAIKELRAGEAMLEQGRREVAGRLHVSLPVLFGRQCVAPILRTYAREHPQLELELNFSDHHVDLIADGFDLAVRNGPLGNGTTLRARRLGNQRKILCASPTYLAARGKPHTLADLADHDLLTYCRNDRNMAWTLPDATGALVDIPITSRLRCNDLEVIADTAVDGMGVAWLPYWLLMERMQRGELIGIWGDRPSAVIECHVVWPAAQHVPLRSRLAINLLAAELPKYLEA : not soluble
